assay: small-molecule microarray binders of probe aNog, primary screen, biochemical, biotinylated probe, 635/667 nm fluorescence (AID 1115); conditions: higher = more signal;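 note: probe is biotinylated aNog protein used at 0.15 µg/mL for 1 h at 4 C; z-score combines 667 nm fluorescence of each spot with its signal to noise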
Listing: composite z-score of selected compounds
No unit in the answer, please; the number alone is enough.

Before answering, review these 4 worked examples.
[[record]]
compound = "CCCCC#C[C@@H]1C=C[C@H](Oc2ccc(C(=O)OC)cc2)[C@@H](COC(=O)OCC)O1"
recorded_value = 0.129

[[record]]
compound = "CCOC(=O)NN=C1C[C@@H](O)[C@@H](O)[C@@H]2[C@@H]3C(=O)N(C(C)(C)C)C(=O)[C@@H]3CC[C@H]12"
recorded_value = -0.171

[[record]]
compound = "CCCNC(=O)OC[C@H]1O[C@H](c2ccccc2)C=C[C@@H]1Oc1ccc(OC)cc1"
recorded_value = -0.343

[[record]]
compound = "CCOC(=O)NN=C1C[C@@H](O)[C@@H](O)[C@@H]2[C@@H]3C(=O)N(Cc4ccccc4)C(=O)[C@@H]3CC[C@H]12"
recorded_value = -0.158


Q) Return composite z-score for the following compound: O=C1C[C@@H](O)[C@@H](O)[C@@H]2[C@@H]3C(=O)N(Cc4ccc5c(c4)OCO5)C(=O)[C@@H]3CC[C@H]12
A) -0.0502

Q) Name the recorded composite z-score of the compound listed here: CCCNC(=O)OC[C@H]1O[C@H](CCON=C(C)CCC(=O)OC[C@H]2O[C@H](c3ccccc3)C=C[C@@H]2Oc2ccc(OC)cc2)C=C[C@@H]1Oc1ccc(OC)cc1
A) -0.0039

Q) For C#CCCCON=C1[C@H]2CCn3c(=O)n(C)c(=O)n3[C@H]2[C@H](O)[C@@H]2O[C@H]12 , write its composite z-score.
A) 0.0762

Q) State, in one line, measured composite z-score of COC(=O)CC=C[C@@H](C)[C@@H](C=NOC(C)CN1CCCc2nc(C)c(C)cc21)OC (stereo not given in full)
A) -0.291

Q) Tell us which composite z-score value is on record for CCOC(=O)NN=C1C[C@@H](O)[C@@H](O)[C@@H]2[C@@H]3C(=O)N(c4ccc(F)cc4F)C(=O)[C@@H]3CC[C@@H]12
A) -0.213

Q) Note down composite z-score recorded for C#CCCCON=C1C[C@@H](O)[C@@H](O)[C@@H]2[C@@H]3C(=O)N(CC)C(=O)[C@@H]3CC[C@@H]12
A) -0.133

Q) Return reported composite z-score. Input compound: CCOC(=O)NN=C1C[C@@H](O)[C@@H](O)[C@@H]2[C@@H]3C(=O)N(Cc4ccc5c(c4)OCO5)C(=O)[C@@H]3CC[C@H]12
A) -0.177
